Give measured MRT for each item. Keep answers brief.
Assay: Mean residence time in rat at 0.5 mg/kg, iv
Assay type: ADME, organism-based
Design: dose 0.5 mg/kg, route intravenous
Details: in vivo

The compound "O=C(O)c1ccccc1NC(=O)N1CCN(c2ncccc2C(F)(F)F)CC1" showed MRT equal to 2.6 h

For "O=C(O)c1ccccc1NC(=O)N1CCC(c2ccccc2C(F)(F)F)CC1" the compound record lists MRT as 9.7 h

The compound listed as CC1=C(/C=C/C(C)=C/C=C/C(C)=C/C(=O)Nc2ccc(O)cc2)C(C)(C)CCC1 [FENRETINIDE] has a reported MRT of 10.5 h
